molecular target: pVHL19 (Homo sapiens); assay: Immunoblot of pVHL19 protein level in HeLa cells after compound treatment; type: cell-based; set-up: endogenous in cells; host or cells: HeLa; details: 1 µM, 10 h, DMSO = 100, Fig. 4a, read-out: pVHL19 band quantification normalized to 0.1% DMSO
Sequence (P40337 54-213): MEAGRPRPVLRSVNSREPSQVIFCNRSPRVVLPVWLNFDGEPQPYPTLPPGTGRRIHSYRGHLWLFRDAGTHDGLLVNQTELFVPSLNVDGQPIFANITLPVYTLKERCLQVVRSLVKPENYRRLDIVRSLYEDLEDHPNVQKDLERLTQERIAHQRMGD
Sequence (Q15369 whole entry partner, canonical isoform): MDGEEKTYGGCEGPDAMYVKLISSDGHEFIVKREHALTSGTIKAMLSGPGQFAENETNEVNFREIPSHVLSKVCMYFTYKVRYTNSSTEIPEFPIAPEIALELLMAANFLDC
Sequence (Q15370 whole entry partner, canonical isoform): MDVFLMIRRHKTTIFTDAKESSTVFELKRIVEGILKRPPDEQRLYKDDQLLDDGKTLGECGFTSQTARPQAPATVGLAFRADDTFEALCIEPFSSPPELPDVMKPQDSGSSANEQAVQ
assay-metric: remaining activity at 1 µM (%)

compound="Cc1ncsc1-c1ccc(CNC(=O)[C@@H]2C[C@@H](O)CN2C(=O)[C@@H](NC(=O)COCCOCCOCCOCCOCCOCC(=O)N[C@H](C(=O)N2C[C@H](O)C[C@H]2C(=O)NCc2ccc(-c3scnc3C)cc2)C(C)(C)C)C(C)(C)C)cc1 [CM11]" scale_unit=% observed_value=91
compound="Cc1ncsc1-c1ccc(CNC(=O)[C@H]2C[C@@H](O)CN2C(=O)[C@H](NC(=O)COCCOCCOCCOCCOCC(=O)N[C@H](C(=O)N2C[C@H](O)C[C@H]2C(=O)NCc2ccc(-c3scnc3C)cc2)C(C)(C)C)C(C)(C)C)cc1 [CMP99]" scale_unit=% observed_value=104
compound="Cc1ncsc1-c1ccc(CNC(=O)[C@@H]2C[C@@H](O)CN2C(=O)[C@@H](NC(=O)COCCOCCOCCOCCOCC(=O)N[C@H](C(=O)N2C[C@H](O)C[C@H]2C(=O)NCc2ccc(-c3scnc3C)cc2)C(C)(C)C)C(C)(C)C)cc1 [CM10]" scale_unit=% observed_value=92

* * *

molecular target: pVHL19 (Homo sapiens, UniProt P40337); assay: Isothermal titration calorimetry (ITC) against VCB complex with short VHL isoform (V19CB); conditions: ITC, 25 °C, pVHL19 (V19CB)
Sequence (P40337 54-213): as the sequence (P40337 54-213) above
Sequence (Q15369 17-112 partner limits assumed): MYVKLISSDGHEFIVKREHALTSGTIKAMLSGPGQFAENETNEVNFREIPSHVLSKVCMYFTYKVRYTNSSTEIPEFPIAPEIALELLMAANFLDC
Sequence (Q15370 1-104 partner limits assumed): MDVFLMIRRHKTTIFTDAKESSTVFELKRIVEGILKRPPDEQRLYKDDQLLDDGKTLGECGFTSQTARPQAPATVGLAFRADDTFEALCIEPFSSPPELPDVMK
assay-metric: Kd (nM)

line_notation=Cc1ncsc1-c1ccc(CNC(=O)[C@@H]2C[C@@H](O)CN2C(=O)[C@@H](NC(=O)COCCOCCOCCOCCOCC(=O)N[C@H](C(=O)N2C[C@H](O)C[C@H]2C(=O)NCc2ccc(-c3scnc3C)cc2)C(C)(C)C)C(C)(C)C)cc1 observed_value=32

A: Cc1ncsc1-c1ccc(CNC(=O)[C@@H]2C[C@@H](O)CN2C(=O)[C@@H](NC(=O)COCCOCCOCCOCC(=O)N[C@H](C(=O)N2C[C@H](O)C[C@H]2C(=O)NCc2ccc(-c3scnc3C)cc2)C(C)(C)C)C(C)(C)C)cc1
B: Cc1ncsc1-c1ccc(CNC(=O)[C@H]2C[C@@H](O)CN2C(=O)[C@H](NC(=O)COCCOCCOCCOCCOCC(=O)N[C@H](C(=O)N2C[C@H](O)C[C@H]2C(=O)NCc2ccc(-c3scnc3C)cc2)C(C)(C)C)C(C)(C)C)cc1
C: Cc1ncsc1-c1ccc(CNC(=O)[C@@H]2C[C@@H](O)CN2C(=O)[C@@H](NC(=O)COCCOCCOCCOCCOCCOCC(=O)N[C@H](C(=O)N2C[C@H](O)C[C@H]2C(=O)NCc2ccc(-c3scnc3C)cc2)C(C)(C)C)C(C)(C)C)cc1
**Q:** Give the ascending ranking of the items by reported Kd. Return value: ordered labels per request.
**A:** C, A, B

* * *

target: pVHL30 (Homo sapiens, UniProt P40337); experiment: Immunoblot of pVHL30 protein level in HeLa cells after compound treatment; format: cell-based; design: endogenous in cells; host or cells: HeLa; settings: 1 µM, 10 h
Sequence (P40337 whole entry): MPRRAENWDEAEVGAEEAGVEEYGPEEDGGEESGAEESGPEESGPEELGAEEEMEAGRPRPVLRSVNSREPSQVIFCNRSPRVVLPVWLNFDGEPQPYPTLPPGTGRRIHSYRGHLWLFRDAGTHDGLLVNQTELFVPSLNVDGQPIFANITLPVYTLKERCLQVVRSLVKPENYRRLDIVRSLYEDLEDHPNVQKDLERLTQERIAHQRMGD
assay-metric: depletion of target protein (pVHL30 / VHL)

compound="Cc1ncsc1-c1ccc(CNC(=O)[C@@H]2C[C@@H](O)CN2C(=O)[C@@H](NC(=O)COCCOCCOCCOCCOCCOCC(=O)N[C@H](C(=O)N2C[C@H](O)C[C@H]2C(=O)NCc2ccc(-c3scnc3C)cc2)C(C)(C)C)C(C)(C)C)cc1 [CM11]" observed_value="total knockdown"
compound="Cc1ncsc1-c1ccc(CNC(=O)[C@@H]2C[C@@H](O)CN2C(=O)[C@@H](NC(=O)COCCOCCOCCOCCOCC(=O)N[C@H](C(=O)N2C[C@H](O)C[C@H]2C(=O)NCc2ccc(-c3scnc3C)cc2)C(C)(C)C)C(C)(C)C)cc1 [CM10]" observed_value="total knockdown"

* * *

biological target: pVHL30 (Homo sapiens); experiment: Immunoblot of pVHL30 protein level in HeLa cells after compound treatment; format: cell-based; parameters: endogenous in cells; host or cells: HeLa; conditions: 1 µM, 10 h, DMSO = 100, Fig. 4a, read-out: pVHL30 band quantification normalized to 0.1% DMSO
assay-metric: remaining activity at 1 µM (%)

line_notation=CC(=O)N[C@H](C(=O)N1C[C@H](O)C[C@H]1C(=O)NCc1ccc(-c2scnc2C)cc1OCCOCCOCCOCCOCCOCC(=O)N[C@H](C(=O)N1C[C@H](O)C[C@H]1C(=O)NCc1ccc(-c2scnc2C)cc1)C(C)(C)C)C(C)(C)C scale_unit=% observed_value=110

1: Cc1ncsc1-c1ccc(CNC(=O)[C@H]2C[C@@H](O)CN2C(=O)[C@H](NC(=O)COCCOCCOCCOCCOCC(=O)N[C@H](C(=O)N2C[C@H](O)C[C@H]2C(=O)NCc2ccc(-c3scnc3C)cc2)C(C)(C)C)C(C)(C)C)cc1
2: Cc1ncsc1-c1ccc(CNC(=O)[C@@H]2C[C@H](O)CN2C(=O)[C@@H](NC(=O)COCCOCCOCCOCCOCCOCC(=O)N[C@H](C(=O)N2C[C@@H](O)C[C@H]2C(=O)NCc2ccc(-c3scnc3C)cc2)C(C)(C)C)C(C)(C)C)cc1
3: Cc1ncsc1-c1ccc(CNC(=O)[C@@H]2C[C@@H](O)CN2C(=O)[C@@H](NC(=O)COCCOCCOCCOCCOCC(=O)N[C@H](C(=O)N2C[C@H](O)C[C@H]2C(=O)NCc2ccc(-c3scnc3C)cc2)C(C)(C)C)C(C)(C)C)cc1
**Q:** // ascending sort on recorded remaining activity at 1 µM Write the labels, ordered according to the request.
**A:** 3, 1, 2

* * *

Molecular target: pVHL19 (Homo sapiens, UniProt P40337)
Assay: Immunoblot of pVHL19 protein level in HeLa cells after compound treatment
Format: cell-based
Set-up: endogenous in cells; host or cells: HeLa
Details: 1 µM, 10 h, DMSO = 100, Fig. 4a, read-out: pVHL19 band quantification normalized to 0.1% DMSO
Method: Cell culture. Human cell lines HeLa, U2OS and HEK 293, purchased from ATCC, were propagated in DMEM supplemented with 10% fetal bovine serum (FBS), L- glutamine, 100 μg ml^−1 of penicillin/streptomycin at 37 °C and 5% CO2. Cells were maintained for no more than 30 passages. […] Immunoblotting. […] After removal of the insoluble fraction by centrifugation, the protein concentration of the supernatant was determined by Pierce™ Coomassie (Bradford) Protein Assay Kit. […]
assay-metric: remaining activity at 1 µM (%)

compound="CC(=O)N[C@H](C(=O)N1C[C@H](O)C[C@H]1C(=O)NCc1ccc(-c2scnc2C)cc1OCCOCCOCCOCCOCCOCC(=O)N[C@H](C(=O)N1C[C@H](O)C[C@H]1C(=O)NCc1ccc(-c2scnc2C)cc1)C(C)(C)C)C(C)(C)C [CMP112]" observed_value=89
compound="Cc1ncsc1-c1ccc(CNC(=O)[C@@H]2C[C@H](O)CN2C(=O)[C@@H](NC(=O)COCCOCCOCCOCCOCCOCC(=O)N[C@H](C(=O)N2C[C@@H](O)C[C@H]2C(=O)NCc2ccc(-c3scnc3C)cc2)C(C)(C)C)C(C)(C)C)cc1 [CMP98]" observed_value=104
compound="Cc1ncsc1-c1ccc(CNC(=O)[C@@H]2C[C@@H](O)CN2C(=O)[C@@H](NC(=O)COCCOCCOCCOCC(=O)N[C@H](C(=O)N2C[C@H](O)C[C@H]2C(=O)NCc2ccc(-c3scnc3C)cc2)C(C)(C)C)C(C)(C)C)cc1 [CM09]" observed_value=102
compound="Cc1ncsc1-c1ccc(CNC(=O)[C@@H]2C[C@@H](O)CN2C(=O)[C@@H](NC(=O)C2(C#N)CC2)C(C)(C)C)c(OCCOCCOCCOCCOCCOc2cc(-c3scnc3C)ccc2CNC(=O)[C@@H]2C[C@@H](O)CN2C(=O)[C@@H](NC(=O)C2(C#N)CC2)C(C)(C)C)c1 [CMP108]" observed_value=97

* * *

molecular target: V19CB (Homo sapiens, UniProt P40337); construct: made in house; test: Size-exclusion chromatography (SEC) of complex formation with V19CB; format: binding; conditions: VCB 50 µM, compound 30 µM
Sequence (P40337 54-213): as the sequence (P40337 54-213) above
Sequence (Q15369 17-112 partner limits assumed): as the sequence (Q15369 17-112 partner limits assumed) above
Sequence (Q15370 1-104 partner limits assumed): as the sequence (Q15370 1-104 partner limits assumed) above
assay-metric: shift of VCB peak / ternary complex formation in SEC

molecule="Cc1ncsc1-c1ccc(CNC(=O)[C@H]2C[C@@H](O)CN2C(=O)[C@H](NC(=O)COCCOCCOCCOCCOCC(=O)N[C@H](C(=O)N2C[C@H](O)C[C@H]2C(=O)NCc2ccc(-c3scnc3C)cc2)C(C)(C)C)C(C)(C)C)cc1 [CMP99]" assay_system="V19CB (Homo sapiens, UniProt P40337)" observed_value="No shift"
molecule="Cc1ncsc1-c1ccc(CNC(=O)[C@@H]2C[C@H](O)CN2C(=O)[C@@H](NC(=O)COCCOCCOCCOCCOCCOCC(=O)N[C@H](C(=O)N2C[C@@H](O)C[C@H]2C(=O)NCc2ccc(-c3scnc3C)cc2)C(C)(C)C)C(C)(C)C)cc1 [CMP98]" assay_system="V19CB (Homo sapiens, UniProt P40337)" observed_value="No shift"
